All figures here come from PubChem BioAssay (NCI).

- Experiment notes: NCI Yeast Anticancer Drug Screen. Data for the mec2-1 strain (AID 157)
- Test context: S. cerevisiae mec2-1 strain, at 50.0 µM, active compounds read high
This is part of a sample that, as a whole, favours compounds with a hit. Of some 79,000 tested, about 15% had one in any assay.
Listing: growth inhibition of selected compounds
Observed property: growth inhibition (%)

> print(dat)
                                    compound  observed.property  value.observed
 1  CC(=O)C(CCCCCCCCCCC(C(C)=O)C(C)=O)C(C)=O  growth inhibition           -2.75
 2  CC1CN(c2nc3ccccc3o2)C(C)CN1c1nc2ccccc2o1 (centres undefined)  growth inhibition             5.6
 3        C#CC1(O)CCCCCCCCC2(CCCCCCCC1)OCCO2  growth inhibition           -10.8
 4  CC[C@@]12CCC(=S)N(CCSc3ccccc3)[C@@H]1c1c(n(S(=O)(=O)c3ccc(OC)cc3)c3ccccc13)CC2  growth inhibition           -18.1
 5  CCC(CC)C(=O)OCCCC1CCCO1 (centres undefined)  growth inhibition             2.9
 6        CCCNC(=O)c1nc(SC)sc1NC(=O)c1ccccc1  growth inhibition             3.5
 7  CCCCS/C=C1\CC2OC(=O)C3(C)CCCC(C)(C1=O)C23 (centres undefined)  growth inhibition            15.2
 8  N#CC12CC=C(c3ccccc3)N=C1NC(c1ccccc1)=CC2 (centres undefined)  growth inhibition           -35.5
 9     Cc1cc2nc(CC(C(F)(F)F)C(F)(F)F)oc2cc1C  growth inhibition           -13.4
10  O=c1c2ccccc2nc(-c2ccc(Br)cc2)n1NC1OC(CO)C(O)C(O)C1O (centres undefined)  growth inhibition            3.05
11     COc1ccc(-c2c(N)nc(=S)[nH]c2C(=O)O)cc1  growth inhibition            9.85
12           Cc1ccc(C(=O)c2ccccc2C(=O)O)cc1C  growth inhibition           -4.35
13     CCOC(=O)c1c[nH]c2c(C(F)(F)F)cccc2c1=O  growth inhibition            -9.1
14        CSc1nc(C)c2c(n1)N(c1ccc(Cl)cc1)CC2  growth inhibition           -32.5
